- assay-target: T1, Human CD19-his protein (human, UniProt P15391 20-291)
- T1 construct: bought protein; also called human CD19 protein; recombinant human CD19-His; not shown: His tag
- T1 sequence (looked up): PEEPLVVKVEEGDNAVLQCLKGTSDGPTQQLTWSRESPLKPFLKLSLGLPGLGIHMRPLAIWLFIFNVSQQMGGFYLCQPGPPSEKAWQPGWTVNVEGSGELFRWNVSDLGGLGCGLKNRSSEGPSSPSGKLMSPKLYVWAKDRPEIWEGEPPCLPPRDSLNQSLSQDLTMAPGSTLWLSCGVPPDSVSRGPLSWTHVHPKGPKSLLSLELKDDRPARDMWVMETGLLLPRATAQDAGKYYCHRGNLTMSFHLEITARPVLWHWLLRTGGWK
- test-summary: ELISA, antibody at 100 nM
- Procedure: Human CD19-his protein (purchased from ACROBiosystems, catalog number: CD9-H52H2) was diluted with PBS to a final concentration of 4 μg/mL, and then added to a 96-well ELISA plate at 100 μl/well. […] The OD450 nm values were read by an ELISA microplate reader (Multimode Plate Reader, EnSight, purchased from Perkin Elmer).
reported-endpoint: OD450
Form: value (number only, do not type unit).

Examples with answers:
binder	OD450
F4.145.9 (antibody, human IgG1, V domains shown, human-murine chimeric antibody, human IgG1) VH: EVQLVESGGGLVKPGGSLKLSCAAAGFAFSSYDMSWVRQIPEKRLEWVAYISAGGGNTYFLDTVKGRFTISRDHAKNTLSLQMSSLKSEDTAMYFCVRHGDYYRYFYAMDYWGQGSSVTVSS VL: DIVMTQSHKFMSTSVGDRVSITCKASQDVGTAVAWSQQKPGQSPKLLIYWASTRHTGVPDRFTGSGSGTDFTLTISNVQSEDLADYFCQQFVTYPYTFGGGTKLEIK	1.84
F3.13.2 (antibody, human IgG1, V domains shown, human-murine chimeric antibody, human IgG1) VH: DVQLQESGPGLMKPSQSLSLTCSVTGYSITSGYYWNWIRQFPGNKLEWMGYISYDGSNNYNPSLKNRFSITRDTSKNQFFLKLNSVTTEDTATYYCARRKLTGGPYFDYWGQGTTLTVSS VL: DIVLTQSPASLAVTLGQRATISCRASESVSFHGFHIMHWYQQKPGQPPKLLIYAASHLVSGVPDRFSGSGSETDFTLNIHPVEEEDAAAYFCQQSVEDPWTFGGGTKLEIK	0.45

Now for a further binder.
Query block: I am curious: what OD450 value has been reported for F3.124.7 (antibody, human IgG1, V domains shown, human-murine chimeric antibody, human IgG1) VH: EVQLQQSGPVLVKPGASVKMSCKASGYTFTDYYMNWVKQRHGKSLEWIGISNPYNGGTSYNQKFKDKATLTVDKSSSTAYMELNSLTSEDSAVYYCAREGGTAQPTSGMDYWGQGTSVTVSS VL: NIMMTQSPSSLAVSAGEKVTMSCKSSQSVLYSSNQKNYLAWYQQKPGQSPKLLIYWASTRESGVPDRFTGSGSGTDFTLTISSVQPEDPAVYYCHQYRSSYTFGGGTKLEIK ?
Result block: 2.75
